Below, each entry is listed alongside its reported protein stability index.
B1: ZNF24 (parent)
chain: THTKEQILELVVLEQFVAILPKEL

Variants of: B1
Assay: protein stability index of a GFP-peptide fusion (GPS, HEK-293T) (PSI 1-6); higher = more stable;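 note: lentivirally expressed fusions sorted by FACS into six bins by GFP to DsRed ratio, PSI derived from sequencing read proportions per bin multiplied by bin number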
Conditions: c terminus: a fixed tail appended
The answer should be written as a number, with no unit following it.

Completed entries (count: 10):
| Sequence Chain | protein stability index |
| --- | --- |
| THTLEQILELVVLEQFVAILPKEL [K4L] | 4.05 |
| THTKEQILELVVLEQEVAILPKEL [F16E] | 2.03 |
| CHTKEQILELVVLEQFVAILPKEL [T1C] | 3.51 |
| THTKEQILELVSLEQFVAILPKEL [V12S] | 2.03 |
| THTKEQILELVVLEYFVAILPKEL [Q15Y] | 2.18 |
| AHTKEQILELVVLEQFVAILPKEL [T1A] | 3.53 |
| THTEEQILELVVLEQFVAILPKEL [K4E] | 1.58 |
| THTKEQILELVVLEQFVAIAPKEL [L20A] | 3.07 |
| THTKEQILELVVLEQFNAILPKEL [V17N] | 1.72 |
| THTKEQILELVVLERFVAILPKEL [Q15R] | 2.81 |

Item under review: THTKEQILELPVLEQFVAILPKEL [V11P] . Reported protein stability index? 2.67

Item under review: THTKLQILELVVLEQFVAILPKEL [E5L] . Reported protein stability index? 2.78

Item under review: THTKEPILELVVLEQFVAILPKEL [Q6P] . Reported protein stability index? 4

Item under review: MHTKEQILELVVLEQFVAILPKEL [T1M] . Reported protein stability index? 1.92

Source of measurements: the supplement of paper PMC10567573
